FYI, the data here is from patent US20240043382A1.

assay target: UniProt P28223
Sequence (P28223 whole entry): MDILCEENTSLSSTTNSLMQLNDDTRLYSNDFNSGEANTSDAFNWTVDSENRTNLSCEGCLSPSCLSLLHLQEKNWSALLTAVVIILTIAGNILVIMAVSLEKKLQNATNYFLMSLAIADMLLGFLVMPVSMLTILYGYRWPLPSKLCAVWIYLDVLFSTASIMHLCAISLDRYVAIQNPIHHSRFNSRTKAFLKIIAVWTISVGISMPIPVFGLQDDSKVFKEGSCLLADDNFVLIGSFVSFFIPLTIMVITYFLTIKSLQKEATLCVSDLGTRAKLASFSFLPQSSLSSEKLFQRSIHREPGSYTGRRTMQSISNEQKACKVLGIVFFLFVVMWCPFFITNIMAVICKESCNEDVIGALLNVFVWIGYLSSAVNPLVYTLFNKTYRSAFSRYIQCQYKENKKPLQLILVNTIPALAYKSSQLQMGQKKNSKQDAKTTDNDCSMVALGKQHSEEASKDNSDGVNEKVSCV
assay text: 5-HT2A receptor functional assay (Gq-mediated calcium flux) of saliva-hydrolyzed modified indole alkaloids
condition info: 5HT2A agonist activity; compounds hydrolyzed by treatment with human saliva; Flp-In T-REx 293 cells expressing h5-HT2A; peak calcium flux
property: EC50 (nM)
Give a bare numeral; the unit nM is implied.

QUERY: Quick one: EC50 of CCCN(CCC)CCc1c[nH]c2cccc(O[C@H]3O[C@H](CO)[C@@H](O)[C@H](O)[C@H]3O)c12 (stereo in doubt) [Hydrolyzed Compound A-6] ?
RESULT: 1.65

QUERY: Request the reported EC50 associated with CCCN(CC)CCc1c[nH]c2cccc(O[C@H]3O[C@H](CO)[C@@H](O)[C@H](O)[C@H]3O)c12 [Hydrolyzed Compound A-5]
RESULT: 3.16

QUERY: Form field: reported EC50 of C=CCN(C)CCc1c[nH]c2cccc(O[C@H]3O[C@H](CO)[C@@H](O)[C@H](O)[C@H]3O)c12 (stereo in doubt) [Hydrolyzed Compound A-8]
RESULT: 3.66

QUERY: Which EC50 is listed for CC(C)N(CCc1c[nH]c2cccc(O[C@H]3O[C@H](CO)[C@@H](O)[C@H](O)[C@H]3O)c12)C(C)C (stereo in doubt) [Hydrolyzed Compound A-7] ?
RESULT: 6.81

QUERY: Form field: reported EC50 of CCN(C)CCc1c[nH]c2cccc(O[C@H]3O[C@H](CO)[C@@H](O)[C@H](O)[C@H]3O)c12 (stereo in doubt) [Hydrolyzed Compound A-1]
RESULT: 4.01

QUERY: What value of measured EC50 is listed for CN(CCc1c[nH]c2cccc(O[C@H]3O[C@H](CO)[C@@H](O)[C@H](O)[C@H]3O)c12)C1CC1 (stereo in doubt) [Hydrolyzed Compound A-9] ?
RESULT: 5.1

QUERY: Which EC50 reading was recorded for the molecule CCCN(C)CCc1c[nH]c2cccc(O[C@H]3O[C@H](CO)[C@@H](O)[C@H](O)[C@H]3O)c12 (stereo in doubt) [Hydrolyzed Compound A-2] ?
RESULT: 3.83

QUERY: Requested field: EC50. Item: CCN(CC)CCc1c[nH]c2cccc(O[C@H]3O[C@H](CO)[C@@H](O)[C@H](O)[C@H]3O)c12 (stereo in doubt) [Hydrolyzed Compound A-4]
RESULT: 6.48
